Experiment: Phase 1 SRD/multiple-rising dose (MRD, Part 2) plasma PK in healthy subjects
Format: in vivo, human
Settings: both sexes, human, plasma, oral, 1 mg, 1 mg QD, Study Day 6; mean; read-out: Cmax
Protocol: The study was designed to assess the safety, tolerability, PK, and PD of COMPOUND A. A total of 88 subjects were enrolled in 6 SRD and 5 SRD/MRD cohorts (n=8 per cohort). The study was composed of 2 parts. […] Referring now to FIG. 3, mean plasma concentration-time profiles (linear and semilog scales) of COMPOUND A were determined on Day 18 following oral administration of COMPOUND A QD for 13 days.
Measurement label: Cmax (ng/mL)

{"columns": ["Compound", "Measurement label", "Reported value"],
 "data": [
  ["CC1=CN2CCS(=O)(=O)N=C2C(c2ccc(OC3CCCCC3)cc2)=N1", "Cmax", 10]
]}
